# Assay Info: Growth inhibition of human Detroit 551 cells at 20 uM after 48 hrs by MTT assay
# Type: cell-based
# Test Conditions: read-out: GI
Attribute Measured: inhibition at 48 h, 20 µM (%)
The response must be a number in % with no trailing unit.

// query Report inhibition at 48 h, 20 µM for Oc1ccc2[nH]cc(C(c3ccc(C(c4c[nH]c5ccc(O)cc45)c4c[nH]c5ccc(O)cc45)cc3)c3c[nH]c4ccc(O)cc34)c2c1
// result 47

====

# Assay Info: Selectivity ratio of IC50 for human MT10 cells to IC50 for human SW620 cells
# Format: ADME, cell-based, SW-620
# Test Conditions: MT10 cells and SW620 cells
Attribute Measured: selectivity ratio
Please reply with the value in numeric form only.

// query Report selectivity ratio for Oc1ccc2[nH]cc(C(c3ccc(C(c4c[nH]c5ccc(O)cc45)c4c[nH]c5ccc(O)cc45)cc3)c3c[nH]c4ccc(O)cc34)c2c1
// result 5.9

====

# Assay Info: Selectivity ratio of IC50 for human MT10 cells to IC50 for human U87MG cells
# Type: ADME, cell-based, U-87MG ATCC
# Test Conditions: MT10 cells and U87MG cells, read-out: Ratio IC50
Attribute Measured: selectivity ratio
Please reply with the value in numeric form only.

// query Report selectivity ratio for Oc1ccc2[nH]cc(C(c3ccc(C(c4c[nH]c5ccc(O)cc45)c4c[nH]c5ccc(O)cc45)cc3)c3c[nH]c4ccc(O)cc34)c2c1
// result 2

====

# Test system: Detroit 551
# Assay Info: Growth inhibition of human Detroit 551 cells after 48 hrs by MTT assay
# Type: cell-based
# Test Conditions: Detroit 551, 48 h
Attribute Measured: IC50

// query Specify the recorded IC50 for Oc1ccc2[nH]cc(C(c3ccc(C(c4c[nH]c5ccc(O)cc45)c4c[nH]c5ccc(O)cc45)cc3)c3c[nH]c4ccc(O)cc34)c2c1 , system: Detroit 551.
// result > 20 µM

====

# Test system: SW480
# Assay Info: Growth inhibition of human SW480 cells after 48 hrs by MTT assay
# Type: functional, cell-based
# Test Conditions: SW480, 48 h
Attribute Measured: pIC50
Reminder that pIC50 is minus the log10 of a molar concentration.

// query Specify the recorded pIC50 for Oc1ccc2[nH]cc(C(c3ccc(C(c4c[nH]c5ccc(O)cc45)c4c[nH]c5ccc(O)cc45)cc3)c3c[nH]c4ccc(O)cc34)c2c1 , system: SW480.
// result 6.43
